system: HeLa; assay: Cytotoxicity against human HeLa cells assessed as dehydrogenase activity after 24 hrs by […]; assay type: functional; conditions: read-out: LC50 (the source's name)
Quick reference for CC50 among some compounds
Number only, in µM; omit the unit.

Specify reported CC50 for the compound shown: CC(NC(=O)C(CC1CCCCC1)NC(=O)C(N)CCCCN)C(=O)NC(CCCCN)C(=O)NC(CC1CCCCC1)C(=O)NC(C)C(=O)NC(CCCCN)C(=O)NC(CCCCN)C(=O)NC(CC1CCCCC1)C(=O)NC(C)C(=O)NC(CCCCN)C(=O)NC(CC1CCCCC1)C(=O)NC(C)C(=O)NC(CCCCN)C(=O)O (racemic)
6.5

Now for another entry.
Specify reported CC50 for the compound shown: CCCCCCC(NC(=O)C(N)CCCCN)C(=O)NC(C)C(=O)NC(CCCCN)C(=O)NC(CCCCCC)C(=O)NC(C)C(=O)NC(CCCCN)C(=O)NC(CCCCN)C(=O)NC(CCCCCC)C(=O)NC(C)C(=O)NC(CCCCN)C(=O)NC(CCCCCC)C(=O)NC(C)C(=O)NC(CCCCN)C(=O)O (racemic)
3.7
